biological target: T1, Claudin 18.2 (CLDN18.2), expressed on CHOS-CLDN 18.2 / HEK293-CLDN 18.2 / HCC827-CLDN 18.2 cells (human, UniProt P56856-2 1-261); experiment: FACS, CHOS-CLDN18.2 cells, 0.005 µg/ml
T1 construct: whole, on cells; The species is not repeated for the CHOS-CLDN 18.2 cells; also called claudin-18A2
value_kind: FACS reading
The answer should be a number; do not append a unit.

Prompt: Returns the measured FACS reading for the input binder. Input: QP14641460 (antibody, human IgG1, kappa, V domains shown, Humanized from QP207208) VH: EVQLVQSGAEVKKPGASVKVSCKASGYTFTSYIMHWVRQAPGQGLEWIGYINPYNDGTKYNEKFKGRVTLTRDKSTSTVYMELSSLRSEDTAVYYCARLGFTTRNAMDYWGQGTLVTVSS VL: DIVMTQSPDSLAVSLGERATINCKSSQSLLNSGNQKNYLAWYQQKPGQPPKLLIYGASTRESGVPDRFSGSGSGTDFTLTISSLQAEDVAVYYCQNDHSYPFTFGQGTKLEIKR
Response: 6600

Prompt: Returns the measured FACS reading for the input binder. Input: QP14651460 (antibody, human IgG1, kappa, V domains shown, Humanized from QP207208) VH: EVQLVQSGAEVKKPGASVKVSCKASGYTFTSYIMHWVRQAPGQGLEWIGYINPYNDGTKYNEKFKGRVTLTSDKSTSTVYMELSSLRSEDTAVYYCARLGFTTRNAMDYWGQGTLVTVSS VL: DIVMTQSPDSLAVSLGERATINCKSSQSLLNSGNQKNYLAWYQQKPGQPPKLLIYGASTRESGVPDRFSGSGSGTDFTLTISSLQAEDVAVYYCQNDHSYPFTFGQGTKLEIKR
Response: 7190

Prompt: Returns the measured FACS reading for the input binder. Input: QP024025 (antibody, human IgG1, V domains shown, also called IMAB362; 175D10(IMAB362)) VH: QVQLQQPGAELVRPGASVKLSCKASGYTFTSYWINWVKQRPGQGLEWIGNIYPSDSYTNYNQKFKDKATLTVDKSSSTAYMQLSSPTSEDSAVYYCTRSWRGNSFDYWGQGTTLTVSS VL: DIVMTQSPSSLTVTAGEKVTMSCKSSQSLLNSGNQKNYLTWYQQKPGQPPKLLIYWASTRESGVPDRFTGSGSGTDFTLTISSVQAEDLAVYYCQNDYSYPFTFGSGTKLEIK
Response: 2830

Prompt: Returns the measured FACS reading for the input binder. Input: QP14641462 (antibody, human IgG1, kappa, V domains shown, Humanized from QP207208) VH: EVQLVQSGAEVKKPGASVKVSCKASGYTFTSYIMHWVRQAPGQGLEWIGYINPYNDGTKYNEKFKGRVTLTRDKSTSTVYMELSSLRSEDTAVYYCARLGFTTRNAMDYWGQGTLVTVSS VL: DIVMTQSPDSLAVSLGERATINCKSSQSLLNSGNQKNYLAWYQQKPGQPPKLLIYGASTRESGVPDRFTGSGSGTDFTLTISSVQAEDVAVYYCQNDHSYPFTFGQGTKLEIKR
Response: 8450

Prompt: Returns the measured FACS reading for the input binder. Input: QP207208 (antibody, human IgG1, V domains shown, Chimeric; also called 51A3; mouse-derived chimeric antibody QP207208) VH: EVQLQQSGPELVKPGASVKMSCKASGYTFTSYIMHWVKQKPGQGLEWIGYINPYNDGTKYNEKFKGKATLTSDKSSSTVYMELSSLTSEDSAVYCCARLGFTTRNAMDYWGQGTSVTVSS VL: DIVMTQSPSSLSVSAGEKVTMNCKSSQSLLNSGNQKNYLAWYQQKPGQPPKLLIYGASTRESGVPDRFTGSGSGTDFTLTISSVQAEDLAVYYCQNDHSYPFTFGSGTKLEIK
Response: 5090

Prompt: Returns the measured FACS reading for the input binder. Input: QP14631461 (antibody, human IgG1, kappa, V domains shown, also called QP14611463) VH: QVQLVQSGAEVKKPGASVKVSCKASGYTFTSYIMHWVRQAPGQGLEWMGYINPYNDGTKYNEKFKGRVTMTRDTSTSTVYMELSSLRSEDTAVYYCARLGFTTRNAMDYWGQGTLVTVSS VL: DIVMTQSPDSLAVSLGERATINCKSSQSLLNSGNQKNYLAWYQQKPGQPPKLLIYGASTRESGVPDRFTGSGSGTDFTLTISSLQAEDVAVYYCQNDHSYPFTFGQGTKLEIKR
Response: 7790
